// data source = patent US20130012466A1

Test system: ADR-RES
test-method-notes: Cytotoxicity assay (cell titer-glo and calcein AM), ADR-RES
settings: read-out: Cytotoxicity IC50, NCI/ADR RES, calcein; NCI/ADR RES; calcein AM readout; % error in parentheses
A collection of molecules and their measured IC50

In the examples that follow, each entry is paired with its recorded IC50.
molecule="COc1cc2c(c(OC)c1OC)-c1ccc(OC)c(=O)cc1[C@@H](NC(=O)CN(OC)[C@@H]1O[C@H](CO)[C@H](O)[C@H](O)[C@H]1NC(C)=O)CC2 [Col28, N-acetyl-D-galactosaminoside]" endpoint=IC50 result_value="> 10 µM"
molecule="COc1cc2c(c(OC)c1OC)-c1ccc(OC)c(=O)cc1[C@@H](NC(=O)CN(OC)[C@@H]1O[C@H](CSC(C)=O)[C@H](O)[C@H](O)[C@H]1O)CC2 [Col68, 6-deoxy-6-thio-acyl-D-galactoside]" endpoint=IC50 result_value="2.04 µM"

Problem: Tell me reported IC50 for COc1cc2c(c(OC)c1OC)-c1ccc(OC)c(=O)cc1[C@@H](NC(=O)CN(OC)[C@@H]1O[C@H](CO)[C@@H](O)C[C@H]1O)CC2 [Col3, 3-deoxy-D-glucoside] , tested with ADR-RES.
Solution: > 10 µM

Problem: Tell me reported IC50 for COc1cc2c(c(OC)c1OC)-c1ccc(OC)c(=O)cc1[C@@H](NC(=O)CN(OC)[C@@H]1O[C@H](C)[C@@H](O)[C@H](O)[C@H]1O)CC2 [Col2, 6-deoxy-D-glucoside] , tested with ADR-RES.
Solution: > 10 µM

Problem: Tell me reported IC50 for COc1cc2c(c(OC)c1OC)-c1ccc(OC)c(=O)cc1C(NC(=O)CN(OC)C1OCC(O)C(O)C1O)CC2 [Col17, L-xyloside] , tested with ADR-RES.
Solution: > 10 µM

----------
Tested on: SK-OV-3
test-method-notes: Cytotoxicity assay (cell titer-glo and calcein AM), SK-OV-3
settings: read-out: Cytotoxicity IC50, SK-OV-3, calcein; SK-OV-3; calcein AM readout; % error in parentheses
Each record is given True if its reported IC50 is strictly below 2 µM. Records at or above 2 µM are given False.

Reference set, count: 9
molecule="CCCCCCCCCC(=O)NC[C@H]1O[C@@H](N(CC(=O)N[C@H]2CCc3cc(OC)c(OC)c(OC)c3-c3ccc(OC)c(=O)cc32)OC)[C@H](O)[C@@H](O)[C@@H]1O [Col59, 6-deoxy-6-N-decanoyl-D-glucosaminoside]" class=False
molecule="COc1cc2c(c(OC)c1OC)-c1ccc(OC)c(=O)cc1[C@@H](NC(=O)CN(OC)[C@@H]1OC[C@@H](O)[C@H](O)[C@H]1O)CC2 [Col4, D-xyloside]" class=False
molecule="COc1cc2c(c(OC)c1OC)-c1ccc(OC)c(=O)cc1[C@@H](NC(=O)CN(OC)[C@@H]1O[C@H](CN=[N+]=[N-])[C@H](O)[C@H](O)[C@H]1O)CC2 [Col43, 6-deoxy-6-azido-D-galactoside]" class=False
molecule="COc1cc2c(c(OC)c1OC)-c1ccc(OC)c(=O)cc1C(NC(=O)CN(OC)C1OCC(O)C(O)C1O)CC2 [Col7, L-lyxoside]" class=False
molecule="COc1cc2c(c(OC)c1OC)-c1ccc(OC)c(=O)cc1[C@@H](NC(=O)CN(OC)[C@@H]1O[C@H](CSC(C)=O)[C@H](O)[C@H](O)[C@H]1O)CC2 [Col68, 6-deoxy-6-thio-acyl-D-galactoside]" class=False
molecule="COc1cc2c(c(OC)c1OC)-c1ccc(OC)c(=O)cc1C(NC(=O)CN(OC)C1OC(COCc3ccccc3)C(OCc3ccccc3)C1OCc1ccccc1)CC2 (centres unmarked)" class=True
molecule="COc1cc2c(c(OC)c1OC)-c1ccc(OC)c(=O)cc1C(NC(=O)CN(OC)C1CC(O)C(O)C(C)O1)CC2 [Col65, D-Digitoxoside]" class=True
molecule="COc1cc2c(c(OC)c1OC)-c1ccc(OC)c(=O)cc1[C@@H](NC(=O)CN(OC)[C@H]1C[C@@H](O)[C@H](O)[C@@H](CO)O1)CC2 [Col16, 2-deoxy-D-glucoside]" class=True
molecule="COc1cc2c(c(OC)c1OC)-c1ccc(OC)c(=O)cc1C(NC(=O)CN(OC)C1OC(C)C(O)C(O)C1O)CC2 [Col14, L-fucoside]" class=False

In the following, a different molecule is considered.
Problem: # TODO verify IC50 < 2 µM strictly for this molecule: COc1cc2c(c(OC)c1OC)-c1ccc(OC)c(=O)cc1[C@@H](NC(=O)CN(OC)[C@@H]1O[C@H](CF)[C@@H](O)[C@H](O)[C@H]1O)CC2 [Col54, 6-deoxy-6-fluoro-D-glucoside]
Solution: False

----------
Test system: ADR-RES
test-method-notes: Cytotoxicity assay (cell titer-glo and calcein AM), ADR-RES
settings: read-out: Cytotoxicity IC50, NCI/ADR RES, CTG; NCI/ADR RES; CTG (cell titer-glo) readout; % error in parentheses
endpoint: IC50 (µM)
Give just the numeric value; µM need not be written.

In the examples that follow, each entry is paired with its recorded IC50.
molecule="COc1cc2c(c(OC)c1OC)-c1ccc(OC)c(=O)cc1[C@@H](NC(=O)CN(OC)[C@@H]1O[C@H](C(=O)O)[C@@H](O)[C@H](O)[C@H]1O)CC2 [Col15, D-glucuronoside]" endpoint=IC50 result_value=1.66
molecule="COc1cc2c(c(OC)c1OC)-c1ccc(OC)c(=O)cc1[C@@H](NC(=O)CN(OC)[C@@H]1O[C@H](CSC(C)=O)[C@H](O)[C@H](O)[C@H]1O)CC2 [Col68, 6-deoxy-6-thio-acyl-D-galactoside]" endpoint=IC50 result_value=4.88
molecule="COc1cc2c(c(OC)c1OC)-c1ccc(OC)c(=O)cc1[C@@H](NC(=O)CN(OC)[C@@H]1O[C@H](CO)[C@@H](O[C@H]3O[C@H](CO)[C@@H](O)[C@H](O)[C@H]3O)[C@H](O)[C@H]1O)CC2 [Col38, D-maltoside]" endpoint=IC50 result_value=0.199

As a next step, examine the molecule that follows.
Problem: Which measured IC50 value corresponds to CCCCCCCCCC(=O)N[C@@H]1[C@@H](O)[C@H](N(CC(=O)N[C@H]2CCc3cc(OC)c(OC)c(OC)c3-c3ccc(OC)c(=O)cc32)OC)O[C@H](CO)[C@H]1O [Col60, 3-deoxy-3-N-decanoyl-D-glucosaminoside] ?
Solution: 4.98

----------
Tested on: NCI-H460
test-method-notes: Cytotoxicity assay (cell titer-glo and calcein AM), NCI-H460
settings: read-out: Cytotoxicity IC50, NCI-H460, CTG; NCI-H460; CTG (cell titer-glo) readout; % error in parentheses
endpoint: IC50 (µM)
Give just the numeric value; µM need not be written.

Problem: Which measured IC50 value corresponds to COc1cc2c(c(OC)c1OC)-c1ccc(OC)c(=O)cc1[C@@H](NC(=O)CN(OC)[C@@H]1O[C@H](C)[C@@H](O)[C@H](O)[C@H]1O)CC2 [Col2, 6-deoxy-D-glucoside] ?
Solution: 7.24

Problem: Which measured IC50 value corresponds to COc1cc2c(c(OC)c1OC)-c1ccc(OC)c(=O)cc1[C@@H](NC(=O)CN(OC)[C@@H]1O[C@H](CO)[C@@H](O)[C@H](F)[C@H]1O)CC2 [Col33, 3-fluoro-3-deoxy-D-glucoside] ?
Solution: 4.39

Problem: Which measured IC50 value corresponds to COc1cc2c(c(OC)c1OC)-c1ccc(OC)c(=O)cc1[C@@H](NC(=O)CN(OC)[C@@H]1O[C@H](CBr)[C@H](O)[C@H](O)[C@H]1O)CC2 [Col42, 6-deoxy-6-bromo-D-galactoside] ?
Solution: 4.4

Problem: Which measured IC50 value corresponds to COc1cc2c(c(OC)c1OC)-c1ccc(OC)c(=O)cc1[C@@H](NC(=O)CN(OC)[C@@H]1O[C@H](CO)[C@H](O)[C@H](O)[C@H]1NC(C)=O)CC2 [Col28, N-acetyl-D-galactosaminoside] ?
Solution: 9.76

Problem: Which measured IC50 value corresponds to COc1cc2c(c(OC)c1OC)-c1ccc(OC)c(=O)cc1[C@@H](NC(=O)CN(OC)[C@@H]1O[C@H](C(=O)O)[C@@H](O)[C@H](O)[C@H]1O)CC2 [Col15, D-glucuronoside] ?
Solution: 1.08

Problem: Which measured IC50 value corresponds to COc1cc2c(c(OC)c1OC)-c1ccc(OC)c(=O)cc1[C@@H](NC(=O)CN(OC)[C@H]1C[C@@H](O)[C@H](O)[C@@H](CO)O1)CC2 [Col16, 2-deoxy-D-glucoside] ?
Solution: 0.946

Problem: Which measured IC50 value corresponds to COc1cc2c(c(OC)c1OC)-c1ccc(OC)c(=O)cc1[C@@H](NC(=O)CN(OC)[C@@H]1O[C@H](CO)[C@@H](O)C[C@H]1O)CC2 [Col3, 3-deoxy-D-glucoside] ?
Solution: 8.37

Problem: Which measured IC50 value corresponds to COc1cc2c(c(OC)c1OC)-c1ccc(OC)c(=O)cc1[C@@H](NC(=O)CN(OC)[C@@H]1O[C@H](CF)[C@@H](O)[C@H](O)[C@H]1O)CC2 [Col54, 6-deoxy-6-fluoro-D-glucoside] ?
Solution: 3.82

Problem: Which measured IC50 value corresponds to COc1cc2c(c(OC)c1OC)-c1ccc(OC)c(=O)cc1C(NC(=O)CN(OC)C1OCC(O)C(O)C1O)CC2 [Col17, L-xyloside] ?
Solution: 5.17

Problem: Which measured IC50 value corresponds to COc1cc2c(c(OC)c1OC)-c1ccc(OC)c(=O)cc1C(NC(=O)CN(OC)C1OCC(O)C(O)C1O)CC2 [Col20, D-arabinoside] ?
Solution: 5.21

Problem: Which measured IC50 value corresponds to COc1cc2c(c(OC)c1OC)-c1ccc(OC)c(=O)cc1[C@@H](NC(=O)CN(OC)[C@@H]1OC[C@@H](O)[C@H](O)[C@@H]1O)CC2 [Col1, D-lyxoside] ?
Solution: 4.51

Problem: Which measured IC50 value corresponds to COc1cc2c(c(OC)c1OC)-c1ccc(OC)c(=O)cc1C(NC(=O)CN(OC)C1CC(O)C(O)C(C)O1)CC2 [Col65, D-Digitoxoside] ?
Solution: 0.862
